EXPERIMENT: Cmax in Wistar rat at 5 mg/kg, po measured upto 72 hrs by HPLC-MS analysis
Type: ADME, organism-based
Parameters: route oral, dose 5 mg/kg, time <=72
ASSAY CONTEXT: in vivo
OBSERVATION TYPE: Cmax
Don't forget the unit after the number, please.

[Q] # lookup: Cmax of CC(=O)Nc1ccc(Oc2cccc3c(NC(=O)Nc4cccc(C(F)(F)F)c4)cccc23)cc1
[A] 39.7 µg/mL

---

EXPERIMENT: Tmax in Wistar rat at 5 mg/kg, po measured upto 72 hrs by HPLC-MS analysis
Assay type: ADME, organism-based
ASSAY CONTEXT: in vivo
OBSERVATION TYPE: Tmax (h)
# number only, unit h dropped from output

[Q] Tmax lookup needed for CC(=O)Nc1ccc(Oc2cccc3c(NC(=O)Nc4cccc(C(F)(F)F)c4)cccc23)cc1 , thanks.
[A] 6

---

EXPERIMENT: AUC (0 to infinity) in Wistar rat at 5 mg/kg, po by HPLC-MS analysis
Type: ADME, organism-based
Set-up: route oral, time infinity, dose 5 mg/kg
ASSAY CONTEXT: in vivo
OBSERVATION TYPE: AUC(0-inf)

[Q] Could you share which AUC(0-inf) value was measured for CC(=O)Nc1ccc(Oc2cccc3c(NC(=O)Nc4cccc(C(F)(F)F)c4)cccc23)cc1 ?
[A] 625 µg·h/mL

---

The reader will find reported pIC50 values listed item by item below.
Tested on: HUVEC
EXPERIMENT: Antiproliferative activity against human HUVEC assessed as reduction in cell viability incubated for 24 hrs by MTT assay
Type: functional, cell-based
# reply with the number alone; pIC50 is -log10 of concentration in mol/L

CC(=O)Nc1ccc(Oc2cccc3c(NC(=O)Nc4cccc(C(F)(F)F)c4)cccc23)cc1 | 5.02

[Q] pIC50 lookup needed for CNC(=O)c1cc(Oc2ccc(NC(=O)Nc3ccc(Cl)c(C(F)(F)F)c3)cc2)ccn1.Cc1ccc(S(=O)(=O)O)cc1 [SORAFENIB TOSYLATE] , thanks.
[A] 5.71

---

EXPERIMENT: Toxicity in po dosed Wistar rat
Assay type: organism-based
ASSAY CONTEXT: in vivo
OBSERVATION TYPE: LD50

[Q] What does the data say about its LD50? Entry: CC(=O)Nc1ccc(Oc2cccc3c(NC(=O)Nc4cccc(C(F)(F)F)c4)cccc23)cc1
[A] > 2000 mg/kg
